B1: FERM and PDZ domain-containing protein 4, residues 75 to 154; numbered along this chain, Q14CM0 (parent)
chain: APRKVEMRRDPVLGFGFVAGSEKPVVVRSVTPGGPSEGKLIPGDQIVMINDEPVSAAPRERVIDLVRSCKESILLTVIQP

# Variants of: B1
# Test Details: abundance fitness (aPCA) (normalised: wild type 0, dead -1); higher = more abundant; growth selection in yeast, the domain comes from the species named
# Experimental Setup: Homo sapiens
Where abundance fitness equals or exceeds -0.06, the correct label is Fulfilled; where it does not, the label is Not fulfilled.

>  <Variant Id>
G43H

>  <Label>
Not fulfilled

$$$$
>  <Variant Id>
S55P

>  <Label>
Fulfilled

$$$$

API: above_or_equal(metric=abundance fitness, cutoff=-0.06) for item E60F
Not fulfilled

API: above_or_equal(metric=abundance fitness, cutoff=-0.06) for item V27H
Not fulfilled

API: above_or_equal(metric=abundance fitness, cutoff=-0.06) for item I63E
Fulfilled

API: above_or_equal(metric=abundance fitness, cutoff=-0.06) for item I63D
Fulfilled

API: above_or_equal(metric=abundance fitness, cutoff=-0.06) for item K39I
Fulfilled

API: above_or_equal(metric=abundance fitness, cutoff=-0.06) for item P32N
Fulfilled

API: above_or_equal(metric=abundance fitness, cutoff=-0.06) for item E22Q
Fulfilled

API: above_or_equal(metric=abundance fitness, cutoff=-0.06) for item G38E
Not fulfilled

API: above_or_equal(metric=abundance fitness, cutoff=-0.06) for item F17C
Not fulfilled

API: above_or_equal(metric=abundance fitness, cutoff=-0.06) for item V18C
Fulfilled

API: above_or_equal(metric=abundance fitness, cutoff=-0.06) for item V5F
Not fulfilled

API: above_or_equal(metric=abundance fitness, cutoff=-0.06) for item Q45E
Fulfilled
